Catalogue of koff values
Biological target: T1, Human IL2Rγ extracellular domain expressed with a C-terminal myc-myc-hexahistidine tag (human)
T1 construct: also called hIL-2Rg-MMH; hIL-2RG-MMH
T1 chain: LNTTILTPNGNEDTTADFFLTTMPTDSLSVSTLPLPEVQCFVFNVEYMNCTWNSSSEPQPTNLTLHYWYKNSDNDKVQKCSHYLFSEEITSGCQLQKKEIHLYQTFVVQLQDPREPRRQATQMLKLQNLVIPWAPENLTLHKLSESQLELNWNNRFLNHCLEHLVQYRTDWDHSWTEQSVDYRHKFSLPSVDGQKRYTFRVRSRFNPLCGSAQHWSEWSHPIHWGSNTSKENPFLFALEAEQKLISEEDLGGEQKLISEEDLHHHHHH
Assay: SPR, captured mAb, 37C, dissociation pH 7.4
assay-metric: koff (s⁻¹)

binder: H4H12889P (antibody, human IgG4 S228P, kappa, V domains shown, anti-IL2Rgamma mAb expressed with human IgG4 Fc; also called REGN7257) VH: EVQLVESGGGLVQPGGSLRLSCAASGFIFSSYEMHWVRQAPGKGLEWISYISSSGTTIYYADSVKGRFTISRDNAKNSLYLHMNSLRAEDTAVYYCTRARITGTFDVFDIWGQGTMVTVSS VL: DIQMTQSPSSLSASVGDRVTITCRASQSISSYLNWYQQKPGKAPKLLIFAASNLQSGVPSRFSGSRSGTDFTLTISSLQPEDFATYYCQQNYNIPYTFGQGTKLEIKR
value-units: s⁻¹
reported-value: 0.000636
//
binder: H4H12886P (antibody, human IgG4 S228P, kappa, V domains shown, anti-IL2Rgamma mAb expressed with human IgG4 Fc) VH: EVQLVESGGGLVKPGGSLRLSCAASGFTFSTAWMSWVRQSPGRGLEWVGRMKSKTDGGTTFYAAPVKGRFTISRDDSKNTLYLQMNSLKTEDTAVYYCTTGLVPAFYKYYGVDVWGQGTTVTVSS VL: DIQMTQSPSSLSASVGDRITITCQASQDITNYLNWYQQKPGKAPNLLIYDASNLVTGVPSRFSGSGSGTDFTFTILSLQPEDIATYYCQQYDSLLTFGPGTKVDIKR
value-units: s⁻¹
reported-value: 0.000519
//
binder: H4H12890P (antibody, human IgG4 S228P, kappa, V domains shown, anti-IL2Rgamma mAb expressed with human IgG4 Fc) VH: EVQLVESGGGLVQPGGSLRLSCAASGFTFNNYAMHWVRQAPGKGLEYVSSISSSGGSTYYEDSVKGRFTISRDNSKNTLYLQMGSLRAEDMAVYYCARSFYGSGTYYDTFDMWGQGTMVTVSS VL: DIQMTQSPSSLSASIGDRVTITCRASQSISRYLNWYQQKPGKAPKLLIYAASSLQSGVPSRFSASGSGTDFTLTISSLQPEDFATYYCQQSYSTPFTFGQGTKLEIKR
value-units: s⁻¹
reported-value: 0.000661
